# System: Mus musculus
# measurement protocol: Neurotoxicity in Kunming mouse at 100 mg/kg, ip after 0.5 hr by rotorod test
# Type: toxicity, organism-based
# Design: dose 100 mg/kg, route intraperitoneal
# reported conditions: in vivo
recorded endpoint: Activity

- CCOC(=O)C1(NC(=O)NNC(=O)c2ccncc2)CC1(C)C (stereo not given): Toxic
- O=C1NC(=O)C(c2ccccc2)(c2ccccc2)N1: Toxic
- CCOC(=O)C1(NC(=O)NNC(=O)c2cccs2)CC1(C)C (stereo not given): Toxic
- CCOC(=O)C1(NC(=O)NNC(=O)c2cccnc2)CC1(C)C (stereo not given): Toxic
- CCOC(=O)C1(NC(=O)NNC(=O)c2ccco2)CC1(C)C (stereo not given): Toxic
